Tested on: RXF 393 renal
Hi! Could you answer with just one of these? active, inactive

Reference set, count: 6
O=C(NCCCNc1cc(-c2cn(-c3ccccc3)nc2-c2cccc(O)c2)ccn1)c1ccccc1
inactive
CC(C)=CC(=O)O[C@H]1C(=O)O[C@@H]2C[C@H]3[C@H](C)C(=O)C(O[C@@H]4O[C@H](CO)[C@@H](O)[C@H](O)[C@H]4O)=C[C@]3(C)[C@H]3[C@@H](O)[C@H](O)[C@]4(C(=O)O)OC[C@]32[C@@H]14
inactive
O=C(Nc1ccc(F)cc1)c1c(NC(=O)C(F)(F)F)sc2c1CCCCC2
inactive
C#CC1(O)C(COP(=O)(O)OC2CC(n3cc(F)c(=O)[nH]c3=O)OC2CO)OC(n2ccc(N)nc2=O)C1O (stereo not drawn)
active
COc1ccc(/C=C/c2nc(NCCCN(C)C)c3ccccc3n2)cc1
inactive
NC(=O)c1cc(Br)cc(C2CCCCC2)c1O
inactive

Query block: // outcome(item) with item = `COCCOC(=O)NC(=O)Nc1ccc(/C(=N/O)c2ccc(Cl)cc2)cc1`
Result block: active

Query block: What classification did `CC/C=C\C[C@H](O)C/C=C1/C(=O)C=C[C@@H]1C/C=C\CCCC(=O)N(C)C` end up with in this test?
Result block: inactive

====

Test system: SF-295 CNS
Output constraint: value belongs to TRUE for active, FALSE for inactive

CC[C@@]1(O)C(=O)NCc2c1cc1n(c2=O)Cc2cc3c(N)cccc3nc2-1
FALSE
CC(=O)O[C@H]1CC[C@@]2(C)C(=CC[C@H]3[C@@H]4C/C(=C\c5cccc(OCCN6CCOCC6)c5)[C@H](OC(C)=O)[C@@]4(C)CC[C@@H]32)C1
FALSE
COc1ccc2c(Nc3ccc(NS(C)(=O)=O)cc3)c3ccccc3nc2c1
TRUE
COc1ccc(-c2cc(/C=C3\C(=O)Nc4ccc(Cl)cc43)[nH]n2)cc1
FALSE
CCOC(=O)C(=Cc1ccccc1[N+](=O)[O-])C(=O)OCC
FALSE
NC(=O)c1cc(Br)cc(C2CCCCC2)c1O
FALSE

Query block: Hi, sorry to bother you, what did the test record for `CC(C)c1ccc(C(=O)Nc2sc3c(c2C#N)CCC(=O)C3)cc1` ?
Result block: FALSE

Query block: Could you check what this test reported for CCN1C(=S)N(CC)C2C1NC(=S)N2/N=C/C=C/c1ccccc1 (stereo not drawn) ?
Result block: FALSE

====

Test system: DLD-1 colon
methodSummary: NCI tumour cell line growth inhibition, 48 h
Measured TGI accompanies every entry in the list below.

Cc1ccc(S(=O)(=O)NC(=O)NC23CC4CC(CC(F)(C4)C2)C3)cc1
> 100 µM

Just so you know, measured TGI for `Cn1ccn2c3nc4ccccc4nc3c(=O)c(C#N)c12` came out at > 100 µM

Lab book: TGI of `O=C1CSC(/C(=C\c2ccc(Cl)cc2)c2nc3ccccc3[nH]2)=N1` noted as 32.5 µM

TGI reading for `C=C1C[C@@H](O)C[C@@]2(C)C[C@@H]3OC(=O)C(=C)[C@@H]3C[C@H]12` : > 36.6 µM

====

Items are presented alongside their recorded TGI.
Tested on: RPMI-8226 leukemia
methodSummary: NCI tumour cell line growth inhibition, 48 h
API: value field is a number in µM; no unit string.

CC/C=C\C[C@H](O)C/C=C1/C(=O)C=C[C@@H]1C/C=C\CCCC(=O)N(C)C
6.01

// moving on: another record for TGI
Documented TGI of `Clc1ccc2[nH]cc(-c3nc(-c4c[nH]c5ncccc45)cs3)c2c1` : 77.1

====

# maps each entry to its TGI
Tested on: SW-620 colon
methodSummary: NCI tumour cell line growth inhibition, 48 h

Answered cases to consult:
COc1cccc(NC(=O)CC(=O)N2N=C(N(CCC#N)c3ccccc3C)CC2c2ccccc2)c1 (stereo unspecified)
> 100 µM
COc1cc(/C=C\[N+](=O)[O-])ccc1OCc1ccccc1
4.02 µM
COc1ccc(-c2cc(/C=C3\C(=O)Nc4ccc(Cl)cc43)[nH]n2)cc1
15.5 µM
Cc1ccc(OCC2OC(n3cnc4nc(Cl)nc(Cl)c43)CC2Oc2ccc(C)cc2)cc1 (stereo unspecified)
28 µM
OCC1OC(n2ccc3c(NO)ncnc32)C(O)C1O (stereo unspecified)
3.23 µM

The compound `NC(=Nc1ccc(O)cc1)S(=O)(=O)O` showed TGI equal to > 100 µM

====

Test system: PC-3 prostate
methodSummary: NCI tumour cell line growth inhibition, 48 h
assayReadout: TGI (µM)
// return numeric value only (unit: µM, not printed)

[Se]=P(c1ccccc1)(c1ccccc1)c1ccc(C(c2ccccc2)=P(c2ccccc2)(c2ccccc2)c2ccccc2)cc1
9.34

GET /value?item= `Cc1c(C(=O)N2CCN(c3ccc([N+](=O)[O-])cc3)CC2)[n+](=O)c2cc(Cl)c(Cl)cc2n1[O-]` &field=TGI returns 45

Measured TGI of `O=C(Nc1ccc(Cl)cc1)c1ccc(NC2=C(Cl)C(=O)N(Cc3ccccc3)C2=O)cc1` : 27.1

====

Tested on: HOP-62 NSCLC
methodSummary: NCI tumour cell line growth inhibition, 48 h
assayReadout: TGI

Sample answers from the record:
CC1(C)N=C(C(N)=O)c2ncn(CCO)c2N1
> 100 µM
Cc1nc2sc(C(=O)Nc3cccc4ccccc34)c(N)c2cc1C(=O)c1ccccc1
> 50 µM
Clc1nc(Cl)c(Cl)c(Cl)n1
35.7 µM
CN(C)c1ccc(/C=C2\N=C(NN)NC2=O)cc1
> 100 µM
N=C(N=C(N)N)N1CCN(c2ccncc2)CC1
> 1000 µM
O=C1NC(N/N=C\C(O)C(O)C(O)CO)=N/C1=C/c1ccc(Cl)cc1 (stereo not drawn)
> 100 µM
C/C(=N\NS(=O)(=O)c1ccccc1)c1ccccc1
> 100 µM

Note: attention shifts to another entry.
Reported TGI for `CC(=O)OCCOCNC(=S)N/N=C(\C)c1cnc2ccccc2n1` was > 100 µM

====

System: HCC-2998 colon
assayReadout: GI50

CCN1C(=S)N(CC)C2C1NC(=S)N2/N=C/C=C/c1ccccc1 (stereo not given)
2.84 µM
C=C1C(=O)O[C@H]2[C@H]1CC/C(COC(=O)NCc1ccc(Cn3c(=O)sn(CCCCl)c3=O)cc1)=C\CC[C@@]1(C)O[C@@H]21
7.83 µM
COc1ccc(/C=C/c2nc(NCCCN(C)C)c3ccccc3n2)cc1
13.8 µM
Cn1ncc2c(N)nc(N3CCCCC3)nc21
18.6 µM
Cn1c(=O)c(Oc2ccccc2F)cc2cnc(NC3CCOCC3)nc21
> 25 µM

Okay, now this compound:
The compound `ClC(Cl)c1nc(-c2cccnc2)n2nc(-c3ccccc3)cc2n1` showed GI50 equal to 0.639 µM

====

Tested on: OVCAR-8 ovarian
methodSummary: NCI tumour cell line growth inhibition, 48 h
assayReadout: TGI

The value of TGI measured for the compound `Cn1c(=O)c(Oc2ccccc2F)cc2cnc(NC3CCOCC3)nc21` turned out to be > 25 µM

# compound `COc1ccccc1-c1cc(=O)c2ccccc2[nH]1` ; its TGI = > 100 µM

Briefly, TGI measured for CC(C(=O)ON1C(=O)CCC1=O)c1ccc(C(=O)c2ccccc2)s1 (stereo unspecified) : > 100 µM

Item: C=C=C(CC)C(C(=O)OC)N(CC)CC (stereo unspecified) | TGI: > 100 µM

`O=C(CN1CCN(Cc2ccccc2)CC1)N1CCCn2c1nc1ccccc1c2=O` has a reported TGI of > 100 µM

TGI in this record for `N=c1nnc(=O)c2c(s1)-n1ncc(C(=O)O)c1NN2` : > 100 µM

====

System: DU-145 prostate
methodSummary: NCI tumour cell line growth inhibition, 48 h
assayReadout: TGI (µM)
A number alone suffices; assume µM.

CCCCCC(=O)N[C@@H](c1ccccc1)C(O)C(=O)OC1C[C@@]2(O)C(OC(=O)c3ccccc3)C3[C@](C)(C(=O)[C@H](O)C(=C1C)C2(C)C)C(OC1OCC(O)C(O)C1O)C[C@H]1OC[C@@]31OC(C)=O (some centres undefined)
13.4
COc1cc(/C=C2\CC3C4CC=C5C[C@@H](OC(C)=O)CC[C@]5(C)C4CC[C@]3(C)C2=O)ccc1OCCCn1ccnc1 (some centres undefined)
10.2
O=C(NCCCNc1cc(-c2cn(-c3ccccc3)nc2-c2cccc(O)c2)ccn1)c1ccccc1
96.5

Let us move to another entry and its TGI.
Consider CCN1C(=S)N(CC)C2C1NC(=S)N2/N=C/C=C/c1ccccc1 (centres undefined) . Its measured TGI is 12.2

====

In this section, each of the compounds is paired with its reported GI50.
Tested on: NCI-H23 lung

See these solved cases before continuing.
Cc1nc2sc(C(=O)Nc3cccc4ccccc34)c(N)c2cc1C(=O)c1ccccc1
3.55 µM
C=C1C(=O)O[C@H]2[C@H]1CC/C(COC(=O)NCc1ccc(Cn3c(=O)sn(CCCCl)c3=O)cc1)=C\CC[C@@]1(C)O[C@@H]21
2.33 µM

Summary for this compound, `COC(=O)c1c2c(c(C)[n+]([O-])c1C)C(=O)C=C(NCc1ccc(F)c(F)c1)C2=O` : GI50 is 0.498 µM

Noted for `Clc1ccc2[nH]cc(-c3nc(-c4c[nH]c5ncccc45)cs3)c2c1` : its GI50 reads 3.34 µM

Note to self: GI50 recorded for `O=C(c1ccc2ncc(-c3nc(NC4CC4)ncc3F)n2c1)N1CCOCC1` was 2.58 µM

Field GI50 (entry `CN(C)CCCN1c2nc3ccccc3cc2Sc2cc3ccccc3nc21` ) reads 1.4 µM

get_value(item= `ClC(Cl)c1nc(-c2cccnc2)n2nc(-c3ccccc3)cc2n1` , readout=GI50) returns 0.62 µM

Record summary for `CCNC(=O)C#CC(=O)NCC` : reported GI50 = > 10 µM

`CCOC(=O)c1[nH]c(-c2ccc(Cl)cc2)cc1-c1cccnc1` yielded GI50 of 2.33 µM

GI50 reported for this compound `COc1ccc(/C=C/c2nc(NCCCN(C)C)c3ccccc3n2)cc1` : 5.43 µM

Memo: OCC1OC(n2ccc3c(NO)ncnc32)C(O)C1O (stereo unspecified) , reported GI50: 0.214 µM
